Measured pIC50 by item
# experimentalSystem: Serine/threonine-protein kinase PAK 1 (Homo sapiens, UniProt Q13153)
# Sequence (Q13153 whole entry): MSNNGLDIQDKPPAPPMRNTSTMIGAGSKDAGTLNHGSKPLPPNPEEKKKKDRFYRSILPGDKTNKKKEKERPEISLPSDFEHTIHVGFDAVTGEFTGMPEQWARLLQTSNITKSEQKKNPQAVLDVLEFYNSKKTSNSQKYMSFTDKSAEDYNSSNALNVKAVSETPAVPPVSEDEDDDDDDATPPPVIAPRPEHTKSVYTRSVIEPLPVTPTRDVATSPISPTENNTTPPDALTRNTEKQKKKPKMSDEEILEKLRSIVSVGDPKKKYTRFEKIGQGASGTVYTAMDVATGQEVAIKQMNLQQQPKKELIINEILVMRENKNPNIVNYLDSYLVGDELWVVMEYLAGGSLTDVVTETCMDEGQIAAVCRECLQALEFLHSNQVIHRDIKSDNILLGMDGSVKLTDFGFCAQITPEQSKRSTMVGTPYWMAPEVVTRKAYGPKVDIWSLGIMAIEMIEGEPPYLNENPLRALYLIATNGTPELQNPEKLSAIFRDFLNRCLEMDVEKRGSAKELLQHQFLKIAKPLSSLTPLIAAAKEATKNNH
# procedureSummary: Inhibition of full-length recombinant human GST-tagged PAK1 expressed in baculovirus expression system by Z'-LYTE assay
Please express pIC50 as -log10 of the molar concentration.

# annotated cases, reported pIC50 shown
> print(dat)
                                   compound  numericreadout
1  O=C(NCC(F)(F)F)c1cc(-c2cnn3cc(-c4ccc(OCCN5CCCCC5)cc4)cnc23)cs1            5.08
2  Cn1cc(-c2cnc3c(-c4csc(C(=O)N[C@@H]5CCCC[C@@H]5N)c4)cnn3c2)cn1 (racemic)            7.62
3  Cn1cc(-c2cnc3c(-c4csc(C(=O)NCC(F)(F)F)c4)cnn3c2)cn1            5.21

Kindly consider the entry below.
# pIC50 (compound: Cc1sc(C(=O)N[C@@H]2[C@H](N)CCCC2(F)F)cc1-c1cnn2cc(Cl)cnc12 ) is 5.68

---

Quick reference: pIC50 of the listed items.
# experimentalSystem: Beta-adrenergic receptor kinase 1 (Homo sapiens, UniProt P25098)
# Sequence (P25098 whole entry): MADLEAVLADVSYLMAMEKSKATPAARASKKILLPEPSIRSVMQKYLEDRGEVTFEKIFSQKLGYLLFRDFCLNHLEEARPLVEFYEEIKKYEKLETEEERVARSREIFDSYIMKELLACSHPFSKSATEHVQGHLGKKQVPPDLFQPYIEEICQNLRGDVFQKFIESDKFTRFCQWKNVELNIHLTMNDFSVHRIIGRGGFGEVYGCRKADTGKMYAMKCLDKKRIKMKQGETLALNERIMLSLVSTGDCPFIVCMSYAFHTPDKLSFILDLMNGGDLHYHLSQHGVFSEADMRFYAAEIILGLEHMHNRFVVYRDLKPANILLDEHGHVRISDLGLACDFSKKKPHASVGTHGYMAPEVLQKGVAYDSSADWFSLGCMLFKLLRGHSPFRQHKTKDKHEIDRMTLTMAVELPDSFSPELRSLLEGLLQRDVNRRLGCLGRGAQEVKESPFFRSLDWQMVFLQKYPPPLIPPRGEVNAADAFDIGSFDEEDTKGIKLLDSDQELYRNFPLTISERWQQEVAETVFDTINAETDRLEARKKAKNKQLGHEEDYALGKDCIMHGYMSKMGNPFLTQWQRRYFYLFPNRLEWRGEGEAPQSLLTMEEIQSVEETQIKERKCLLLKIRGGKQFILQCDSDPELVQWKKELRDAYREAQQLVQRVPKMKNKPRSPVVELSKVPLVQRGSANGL
# procedureSummary: Inhibition of full-length recombinant human His-tagged ADRBK1 expressed in baculovirus expression system by Z'-LYTE assay
Entry type: numeric. Quantity: pIC50, the -log10 of concentration in molar units.

Observed pIC50, Beta-adrenergic receptor kinase 1 (Homo sapiens, UniProt P25098), Cn1cc(-c2cnc3c(-c4csc(C(=O)NCC(F)(F)F)c4)cnn3c2)cn1 : 4.64

Kindly note: Beta-adrenergic receptor kinase 1 (Homo sapiens, UniProt P25098), O=C(NCC(F)(F)F)c1cc(-c2cnn3cc(-c4ccc(OCCN5CCCCC5)cc4)cnc23)cs1 , pIC50 value reported: 6.21

Tested on Beta-adrenergic receptor kinase 1 (Homo sapiens, UniProt P25098): Cc1sc(C(=O)N[C@@H]2[C@H](N)CCCC2(F)F)cc1-c1cnn2cc(Cl)cnc12 . Observed pIC50: 4.96

Given the molecule Cn1cc(-c2cnc3c(-c4csc(C(=O)N[C@@H]5CCCC[C@@H]5N)c4)cnn3c2)cn1 (racemic) and test system Beta-adrenergic receptor kinase 1 (Homo sapiens, UniProt P25098), the measured pIC50 is 6.80

---

# experimentalSystem: Serine/threonine-protein kinase MRCK alpha (Homo sapiens)
# Sequence (Q5VT25 whole entry, the tested form may be a part): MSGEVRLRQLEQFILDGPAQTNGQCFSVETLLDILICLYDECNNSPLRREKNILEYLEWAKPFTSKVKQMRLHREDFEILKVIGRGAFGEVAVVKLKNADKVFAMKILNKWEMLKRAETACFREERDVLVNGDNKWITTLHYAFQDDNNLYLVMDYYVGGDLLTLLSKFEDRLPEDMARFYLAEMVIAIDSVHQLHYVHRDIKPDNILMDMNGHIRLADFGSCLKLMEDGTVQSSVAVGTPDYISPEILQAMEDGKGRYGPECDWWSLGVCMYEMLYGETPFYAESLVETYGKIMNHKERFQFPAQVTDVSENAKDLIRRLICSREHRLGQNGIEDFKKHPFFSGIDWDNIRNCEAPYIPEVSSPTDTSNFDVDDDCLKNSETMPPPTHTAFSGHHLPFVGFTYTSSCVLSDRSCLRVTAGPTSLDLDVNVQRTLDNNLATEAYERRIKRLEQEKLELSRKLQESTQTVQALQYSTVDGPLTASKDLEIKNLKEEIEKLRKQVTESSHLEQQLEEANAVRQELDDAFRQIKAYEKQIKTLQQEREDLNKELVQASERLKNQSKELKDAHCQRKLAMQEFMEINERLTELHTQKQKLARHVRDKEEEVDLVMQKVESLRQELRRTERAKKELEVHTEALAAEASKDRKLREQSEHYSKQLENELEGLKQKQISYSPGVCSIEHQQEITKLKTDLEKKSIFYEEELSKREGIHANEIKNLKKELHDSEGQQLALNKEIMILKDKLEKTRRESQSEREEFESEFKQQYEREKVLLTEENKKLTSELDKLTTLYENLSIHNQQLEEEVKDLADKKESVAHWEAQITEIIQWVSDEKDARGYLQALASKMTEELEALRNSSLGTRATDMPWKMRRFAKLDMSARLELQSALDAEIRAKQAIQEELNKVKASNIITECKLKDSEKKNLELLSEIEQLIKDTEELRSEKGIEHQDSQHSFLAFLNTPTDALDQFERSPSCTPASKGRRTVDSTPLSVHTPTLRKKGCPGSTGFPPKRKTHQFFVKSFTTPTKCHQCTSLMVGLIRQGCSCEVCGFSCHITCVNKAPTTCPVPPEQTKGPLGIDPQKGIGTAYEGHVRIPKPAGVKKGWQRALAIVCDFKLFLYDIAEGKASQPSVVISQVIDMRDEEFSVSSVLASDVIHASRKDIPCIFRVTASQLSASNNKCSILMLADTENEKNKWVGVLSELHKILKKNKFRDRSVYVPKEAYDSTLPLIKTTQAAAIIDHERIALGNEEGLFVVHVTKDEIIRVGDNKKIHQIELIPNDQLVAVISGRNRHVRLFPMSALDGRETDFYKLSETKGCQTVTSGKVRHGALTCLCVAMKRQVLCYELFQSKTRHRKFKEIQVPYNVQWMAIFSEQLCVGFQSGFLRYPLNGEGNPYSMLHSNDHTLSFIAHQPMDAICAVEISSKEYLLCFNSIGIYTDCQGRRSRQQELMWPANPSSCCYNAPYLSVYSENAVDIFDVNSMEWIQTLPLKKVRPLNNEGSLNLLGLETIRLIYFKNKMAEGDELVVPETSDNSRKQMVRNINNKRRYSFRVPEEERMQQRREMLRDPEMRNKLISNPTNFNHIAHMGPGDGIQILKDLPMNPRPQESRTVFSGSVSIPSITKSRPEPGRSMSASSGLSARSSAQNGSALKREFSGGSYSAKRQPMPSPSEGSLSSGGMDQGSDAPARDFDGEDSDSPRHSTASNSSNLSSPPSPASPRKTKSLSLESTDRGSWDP
# procedureSummary: Inhibition of recombinant human His-tagged CDC42BPA catalytic domain expressed in baculovirus expression system by Z'-LYTE assay
// IC50 lookup, one value per entry
Respond numerically; units are nM and should not be typed.

Take a look at these entries with their results.
> print(dat)
                                   molecule                        experimentalsystem  numericreadout
1  Cn1cc(-c2cnc3c(-c4csc(C(=O)NCC(F)(F)F)c4)cnn3c2)cn1  Serine/threonine-protein kinase MRCK alpha (Homo sapiens)            9200
2  Cc1sc(C(=O)N[C@@H]2[C@H](N)CCCC2(F)F)cc1-c1cnn2cc(Cl)cnc12  Serine/threonine-protein kinase MRCK alpha (Homo sapiens)            1000
3  Cn1cc(-c2cnc3c(-c4csc(C(=O)N[C@@H]5CCCC[C@@H]5N)c4)cnn3c2)cn1 (racemic)  Serine/threonine-protein kinase MRCK alpha (Homo sapiens)              72

Turning to the following molecule.
molecule O=C(NCC(F)(F)F)c1cc(-c2cnn3cc(-c4ccc(OCCN5CCCCC5)cc4)cnc23)cs1 , IC50 observed: 1200

---

# experimentalSystem: Protein kinase C iota type (Homo sapiens, UniProt P41743)
# Sequence (P41743 whole entry): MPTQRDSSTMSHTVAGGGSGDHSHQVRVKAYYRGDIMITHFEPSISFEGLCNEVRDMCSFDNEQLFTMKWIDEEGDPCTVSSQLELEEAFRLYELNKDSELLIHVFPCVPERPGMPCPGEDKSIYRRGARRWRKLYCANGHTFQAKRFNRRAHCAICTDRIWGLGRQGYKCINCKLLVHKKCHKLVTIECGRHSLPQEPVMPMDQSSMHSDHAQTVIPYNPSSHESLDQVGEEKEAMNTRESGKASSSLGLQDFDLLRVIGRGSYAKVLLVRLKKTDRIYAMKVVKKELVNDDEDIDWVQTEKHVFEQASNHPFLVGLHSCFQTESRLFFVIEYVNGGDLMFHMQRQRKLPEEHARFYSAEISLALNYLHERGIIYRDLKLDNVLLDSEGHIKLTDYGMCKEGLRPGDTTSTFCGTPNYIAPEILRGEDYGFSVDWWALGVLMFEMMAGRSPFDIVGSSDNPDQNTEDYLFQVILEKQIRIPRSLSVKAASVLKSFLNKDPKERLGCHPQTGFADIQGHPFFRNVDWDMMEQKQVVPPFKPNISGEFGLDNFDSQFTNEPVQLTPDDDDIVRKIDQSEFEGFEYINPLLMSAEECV
# procedureSummary: Inhibition of full-length recombinant human His-tagged PRKCI expressed in baculovirus expression system by Z'-LYTE assay
parameterMeasured: pIC50
Would you please state pIC50, meaning minus log10 of the concentration in mol/L, as a bare number?

Consider the reported pIC50 for these molecules:
> print(dat)
                                   molecule  parametermeasured  numericreadout
1  Cn1cc(-c2cnc3c(-c4csc(C(=O)N[C@@H]5CCCC[C@@H]5N)c4)cnn3c2)cn1 (racemic)              pIC50            7.43
2  Cn1cc(-c2cnc3c(-c4csc(C(=O)NCC(F)(F)F)c4)cnn3c2)cn1              pIC50            5.17

Value of measured pIC50 for the entry Cc1sc(C(=O)N[C@@H]2[C@H](N)CCCC2(F)F)cc1-c1cnn2cc(Cl)cnc12 : 6.14

pIC50 reported for this molecule O=C(NCC(F)(F)F)c1cc(-c2cnn3cc(-c4ccc(OCCN5CCCCC5)cc4)cnc23)cs1 : 5.82

---

# experimentalSystem: cAMP-dependent protein kinase catalytic subunit alpha (Homo sapiens)
# procedureSummary: Inhibition of recombinant human His-tagged PRKACA catalytic domain expressed in Escherichia coli by Z'-LYTE assay
pIC50 listing for selected compounds.
Recall that pIC50 is obtained by taking minus log10 of the concentration measured in molar.

> print(dat)
                                   compound  numericreadout
1  O=C(NCC(F)(F)F)c1cc(-c2cnn3cc(-c4ccc(OCCN5CCCCC5)cc4)cnc23)cs1            4.82
2  Cn1cc(-c2cnc3c(-c4csc(C(=O)N[C@@H]5CCCC[C@@H]5N)c4)cnn3c2)cn1 (racemic)            7.57

Shifting focus to the compound that follows.
Sample Cc1sc(C(=O)N[C@@H]2[C@H](N)CCCC2(F)F)cc1-c1cnn2cc(Cl)cnc12 ; pIC50 observed: 5.52

---

# experimentalSystem: RAC-beta serine/threonine-protein kinase (Homo sapiens, UniProt P31751)
# Sequence (P31751 whole entry): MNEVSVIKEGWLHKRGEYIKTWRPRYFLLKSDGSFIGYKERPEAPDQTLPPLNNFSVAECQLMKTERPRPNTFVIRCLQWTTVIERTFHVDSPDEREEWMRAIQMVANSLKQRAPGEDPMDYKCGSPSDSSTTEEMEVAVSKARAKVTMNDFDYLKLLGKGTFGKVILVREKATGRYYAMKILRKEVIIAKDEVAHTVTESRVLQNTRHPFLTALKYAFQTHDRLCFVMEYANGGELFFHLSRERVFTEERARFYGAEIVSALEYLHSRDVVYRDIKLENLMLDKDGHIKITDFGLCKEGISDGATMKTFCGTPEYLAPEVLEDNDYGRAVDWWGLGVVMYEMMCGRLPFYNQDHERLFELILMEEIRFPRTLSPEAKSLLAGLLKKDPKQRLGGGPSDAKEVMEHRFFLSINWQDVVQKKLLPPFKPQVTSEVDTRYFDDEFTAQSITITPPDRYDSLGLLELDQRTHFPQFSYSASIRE
# procedureSummary: Inhibition of full-length recombinant human His-tagged AKT2 expressed in baculovirus expression system by Z'-LYTE assay
parameterMeasured: IC50 (nM)
Return type: number; implicit unit nM.

Recorded IC50, per entry:
> print(dat)
                                   compound  numericreadout
1  Cn1cc(-c2cnc3c(-c4csc(C(=O)N[C@@H]5CCCC[C@@H]5N)c4)cnn3c2)cn1 (racemic)             430
2  Cc1sc(C(=O)N[C@@H]2[C@H](N)CCCC2(F)F)cc1-c1cnn2cc(Cl)cnc12            2500

Please turn your attention to the following entry.
Data point: O=C(NCC(F)(F)F)c1cc(-c2cnn3cc(-c4ccc(OCCN5CCCCC5)cc4)cnc23)cs1 ; IC50 = 23000

---

# experimentalSystem: Cyclin-dependent kinase 5/CDK5 activator 1 (Homo sapiens)
# Sequence (Q00535 whole entry): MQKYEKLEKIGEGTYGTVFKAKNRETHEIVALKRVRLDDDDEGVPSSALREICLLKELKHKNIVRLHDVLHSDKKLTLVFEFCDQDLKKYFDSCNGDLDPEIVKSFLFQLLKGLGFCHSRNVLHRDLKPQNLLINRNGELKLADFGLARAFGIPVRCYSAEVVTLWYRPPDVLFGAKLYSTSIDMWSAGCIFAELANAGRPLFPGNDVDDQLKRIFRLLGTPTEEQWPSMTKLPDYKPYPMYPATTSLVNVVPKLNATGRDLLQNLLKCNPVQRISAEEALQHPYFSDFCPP
# Sequence (Q15078 whole entry, further chain): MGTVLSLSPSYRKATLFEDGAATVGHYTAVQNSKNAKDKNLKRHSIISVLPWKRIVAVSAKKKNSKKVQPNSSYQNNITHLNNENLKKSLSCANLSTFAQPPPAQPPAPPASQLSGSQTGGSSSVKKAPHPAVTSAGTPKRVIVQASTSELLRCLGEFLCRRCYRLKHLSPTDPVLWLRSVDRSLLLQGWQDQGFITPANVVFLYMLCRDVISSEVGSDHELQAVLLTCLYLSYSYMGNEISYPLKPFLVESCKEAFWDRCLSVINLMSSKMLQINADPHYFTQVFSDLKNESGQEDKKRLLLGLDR
# procedureSummary: Inhibition of full-length recombinant human GST and His-tagged CDK5/P25 expressed in baculovirus expression system by Z'-LYTE assay
parameterMeasured: pIC50
When answering, recall that pIC50 equals minus log10 of the concentration in mol/L, and write that number alone.

// solved cases for pIC50 follow
> print(dat)
                                   compound  numericreadout
1  Cn1cc(-c2cnc3c(-c4csc(C(=O)N[C@@H]5CCCC[C@@H]5N)c4)cnn3c2)cn1 (racemic)            8.36
2  O=C(NCC(F)(F)F)c1cc(-c2cnn3cc(-c4ccc(OCCN5CCCCC5)cc4)cnc23)cs1            7.72

Now look at this one.
Briefly, pIC50 measured for Cc1sc(C(=O)N[C@@H]2[C@H](N)CCCC2(F)F)cc1-c1cnn2cc(Cl)cnc12 : 7.21

---

Listing of entries alongside the reported IC50.
# experimentalSystem: Serine/threonine-protein kinase TBK1 (Homo sapiens)
# Sequence (Q9UHD2 whole entry): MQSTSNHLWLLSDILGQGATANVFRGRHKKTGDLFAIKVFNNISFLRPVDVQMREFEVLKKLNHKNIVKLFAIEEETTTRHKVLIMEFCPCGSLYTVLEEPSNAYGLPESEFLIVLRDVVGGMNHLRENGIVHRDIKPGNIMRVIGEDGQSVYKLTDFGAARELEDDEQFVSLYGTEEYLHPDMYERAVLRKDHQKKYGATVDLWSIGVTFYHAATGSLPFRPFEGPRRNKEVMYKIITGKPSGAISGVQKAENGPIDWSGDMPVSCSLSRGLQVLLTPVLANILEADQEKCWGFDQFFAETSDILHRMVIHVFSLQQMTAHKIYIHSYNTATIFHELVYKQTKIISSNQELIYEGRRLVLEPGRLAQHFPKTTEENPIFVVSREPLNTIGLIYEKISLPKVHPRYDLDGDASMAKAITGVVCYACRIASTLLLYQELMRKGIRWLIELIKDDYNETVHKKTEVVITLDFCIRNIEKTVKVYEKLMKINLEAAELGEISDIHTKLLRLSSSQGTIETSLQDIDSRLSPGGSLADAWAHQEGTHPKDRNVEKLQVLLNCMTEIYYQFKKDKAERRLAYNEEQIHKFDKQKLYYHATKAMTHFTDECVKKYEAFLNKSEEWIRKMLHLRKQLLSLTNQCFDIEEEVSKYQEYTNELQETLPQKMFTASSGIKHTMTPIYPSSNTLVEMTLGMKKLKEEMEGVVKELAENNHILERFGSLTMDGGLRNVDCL
# procedureSummary: Inhibition of full-length recombinant human GST-tagged TBK1 expressed in insect cells by Z'-LYTE assay

Solved cases (3 shown):
> print(dat)
                                   compound  parametermeasured   result
1  Cn1cc(-c2cnc3c(-c4csc(C(=O)N[C@@H]5CCCC[C@@H]5N)c4)cnn3c2)cn1 (racemic)               IC50   < 1 nM
2  Cc1sc(C(=O)N[C@@H]2[C@H](N)CCCC2(F)F)cc1-c1cnn2cc(Cl)cnc12               IC50  < 10 nM
3  Cn1cc(-c2cnc3c(-c4csc(C(=O)NCC(F)(F)F)c4)cnn3c2)cn1               IC50  < 10 nM

Now look at this entry.
IC50 recorded for this compound, O=C(NCC(F)(F)F)c1cc(-c2cnn3cc(-c4ccc(OCCN5CCCCC5)cc4)cnc23)cs1 , is < 10 nM

Values compiled from ChEMBL document CHEMBL4477252.
